# assay.target: 3xFLAG-BIRC6 (full-length, wild type) (human)
# assay: FRET or BRET
metric: Kd (nM)
Answer with a number only, understood to be in nM.

State its Kd on 3xFLAG-BIRC6 (full-length, wild type) (human): BODIPY-labeled caspase-7 (from UniProt P55210 1-303) (enzyme)
4

# credit: paper doi:10.1101/2022.08.19.504532
